system: ADCK4; conditions: concentration: 1 μM, replicates: in singlicate; n = 1;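 also: KINOMEscan kinase panel screen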
Listed here are compounds together with their documented %Inh.
Field format: number, assumed %, no unit text.

| Compound | %Inh (%) |
| --- | --- |
| O=C1NC(=O)C(N2CCc3ccccc32)=C1c1ccccc1Cl | 16 |
| Nc1nc(-c2nccs2)c(-c2ccnc3ccccc23)s1 | 39 |
| O=S(=O)(c1ccc(-c2ccnc3[nH]ccc23)cc1)N1CCCC1 | 21 |
| Cl.NC(=O)c1cccc(Nc2nccc(Nc3ccc(Oc4cccc(Cl)c4)c(Cl)c3)n2)c1 | 32 |
| O=C(Nc1n[nH]c2nc(-c3nccs3)c(Br)cc12)C1CCCC1 | 14 |
| COc1ccc(Nc2nccc(NCCNC(=O)Nc3ccccc3F)n2)cc1 | 25 |

Name the recorded %Inh for COc1cc(Nc2nccc(N3CCC(NC(=O)Nc4cc(C)ccc4C)C3)n2)cc(OC)c1OC (centres unmarked) . 49

// same read-out, input: O=C(Nc1n[nH]c2nc(-c3nccs3)c(Br)cc12)C1CC1 19
